Provenance of the data: ChEMBL document CHEMBL1201862

# EC50 per entry
- assay-explanation: luciferase reporter signal suppression in cells – H4 neuroglioma cells, luminescence, dose response (AID 1990)
- Type: functional, cell-based
Calls of active or inactive are those of the source. Cut-off read from the data, not from the text of the source: actives have a measured EC50 and inactives only a lower limit.

Solved cases below.
1) CN(C)c1cc[n+](CC(=O)Nc2ccc(Oc3ccccc3)cc2)cc1 | 17.1 µM (active)
2) CCOC(=O)c1ccccc1NC(=O)CSc1ccc(-c2ccccn2)nn1 | 11.7 µM (active)
3) Cc1ccc(S(=O)(=O)N2CCC(=O)N(C(COCc3ccc(Cl)cc3)Cc3ccccc3)CC2)cc1 (centres undefined) | > 120 µM (not active)

INPUT: Tell me EC50 reported for COc1ccc(-c2cn(CCO)nc2-c2ccc(OC)cc2)cc1
OUTPUT: 16.1 µM (active)
